System: Neuro-2a
assay-explanation: neurite formation score, plate-normalized to DMSO control mean 5.04 (score (0-8 scale)); higher = more or longer neurites
experimental-context: 0.1 µM
We use 5 as the dividing line for neurite formation score: on or above the line is TRUE, below is FALSE.

-- ask Textbook exercise: given the entry `N#C/C(=C(/N)Sc1ccc(N)cc1)c1ccccc1C(F)(F)F` , state whether its neurite formation score is greater than or equal to 5.
-- reply FALSE

-- ask Please indicate if the recorded neurite formation score for CNC(=O)c1cc(Oc2ccc(NC(=O)Nc3ccc(Cl)c(C(F)(F)F)c3)c(F)c2)ccn1 [Regorafenib monohydrate] meets or exceeds 5.
-- reply TRUE

-- ask I'd appreciate it if you could say whether `NC(=O)Nc1sc(-c2ccc(F)cc2)cc1C(N)=O` has neurite formation score at least equal to 5.
-- reply FALSE

-- ask Would you say `N[C@@H]1CCCN(c2c(/C=C3\SC(=O)NC3=O)cccc2-c2ccccc2)C1` shows neurite formation score at minimum 5?
-- reply TRUE

-- ask Answer whether neurite formation score of `O=S(=O)(NCCNC/C=C/c1ccc(Br)cc1)c1cccc2cnccc12` is greater than or equal to 5.
-- reply FALSE

-- ask Does the reported neurite formation score for O=C1NC(=O)C(=Cc2ccc(-c3ccc(F)cc3)o2)S1 (stereo in doubt) fall at or above the 5 mark?
-- reply FALSE
